Biological target: T1, human collagen type I, acid soluble, extracted from placenta (Sigma C7774) (human, UniProt P02452 162-1218; P08123 80-1119)
T1 construct: tissue extract, gelled and dried in wells; also called dried human collagen; h-Collagen
T1 sequence (P02452 162-1218 limits assumed, chain 1 of 2): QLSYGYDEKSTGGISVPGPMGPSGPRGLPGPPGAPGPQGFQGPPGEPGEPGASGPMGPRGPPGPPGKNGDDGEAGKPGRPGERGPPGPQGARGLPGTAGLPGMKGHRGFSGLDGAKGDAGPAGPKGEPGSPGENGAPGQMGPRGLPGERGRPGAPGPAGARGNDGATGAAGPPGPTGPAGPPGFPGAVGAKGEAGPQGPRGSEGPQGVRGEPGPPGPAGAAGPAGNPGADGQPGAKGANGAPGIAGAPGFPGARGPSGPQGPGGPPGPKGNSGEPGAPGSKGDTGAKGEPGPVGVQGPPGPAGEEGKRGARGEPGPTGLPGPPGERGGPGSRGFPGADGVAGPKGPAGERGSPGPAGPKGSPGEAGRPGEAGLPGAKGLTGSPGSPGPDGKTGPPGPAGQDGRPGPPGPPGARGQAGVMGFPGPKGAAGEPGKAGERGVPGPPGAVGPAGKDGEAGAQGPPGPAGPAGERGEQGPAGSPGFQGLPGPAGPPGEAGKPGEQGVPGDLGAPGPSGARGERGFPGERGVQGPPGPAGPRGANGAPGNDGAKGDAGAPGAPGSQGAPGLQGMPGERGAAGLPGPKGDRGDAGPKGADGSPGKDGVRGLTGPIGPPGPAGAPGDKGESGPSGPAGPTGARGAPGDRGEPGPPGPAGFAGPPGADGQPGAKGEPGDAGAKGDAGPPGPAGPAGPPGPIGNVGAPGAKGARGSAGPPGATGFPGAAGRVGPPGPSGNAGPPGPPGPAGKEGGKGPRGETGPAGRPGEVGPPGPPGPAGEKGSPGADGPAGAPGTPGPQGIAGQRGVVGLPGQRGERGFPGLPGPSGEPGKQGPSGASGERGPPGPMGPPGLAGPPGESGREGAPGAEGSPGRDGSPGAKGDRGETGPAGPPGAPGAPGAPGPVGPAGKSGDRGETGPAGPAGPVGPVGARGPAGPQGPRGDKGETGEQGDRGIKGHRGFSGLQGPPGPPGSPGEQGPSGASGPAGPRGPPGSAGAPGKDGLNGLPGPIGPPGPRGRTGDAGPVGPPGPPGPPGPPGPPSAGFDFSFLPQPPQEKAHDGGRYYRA
T1 sequence (P08123 80-1119 limits assumed, chain 2 of 2): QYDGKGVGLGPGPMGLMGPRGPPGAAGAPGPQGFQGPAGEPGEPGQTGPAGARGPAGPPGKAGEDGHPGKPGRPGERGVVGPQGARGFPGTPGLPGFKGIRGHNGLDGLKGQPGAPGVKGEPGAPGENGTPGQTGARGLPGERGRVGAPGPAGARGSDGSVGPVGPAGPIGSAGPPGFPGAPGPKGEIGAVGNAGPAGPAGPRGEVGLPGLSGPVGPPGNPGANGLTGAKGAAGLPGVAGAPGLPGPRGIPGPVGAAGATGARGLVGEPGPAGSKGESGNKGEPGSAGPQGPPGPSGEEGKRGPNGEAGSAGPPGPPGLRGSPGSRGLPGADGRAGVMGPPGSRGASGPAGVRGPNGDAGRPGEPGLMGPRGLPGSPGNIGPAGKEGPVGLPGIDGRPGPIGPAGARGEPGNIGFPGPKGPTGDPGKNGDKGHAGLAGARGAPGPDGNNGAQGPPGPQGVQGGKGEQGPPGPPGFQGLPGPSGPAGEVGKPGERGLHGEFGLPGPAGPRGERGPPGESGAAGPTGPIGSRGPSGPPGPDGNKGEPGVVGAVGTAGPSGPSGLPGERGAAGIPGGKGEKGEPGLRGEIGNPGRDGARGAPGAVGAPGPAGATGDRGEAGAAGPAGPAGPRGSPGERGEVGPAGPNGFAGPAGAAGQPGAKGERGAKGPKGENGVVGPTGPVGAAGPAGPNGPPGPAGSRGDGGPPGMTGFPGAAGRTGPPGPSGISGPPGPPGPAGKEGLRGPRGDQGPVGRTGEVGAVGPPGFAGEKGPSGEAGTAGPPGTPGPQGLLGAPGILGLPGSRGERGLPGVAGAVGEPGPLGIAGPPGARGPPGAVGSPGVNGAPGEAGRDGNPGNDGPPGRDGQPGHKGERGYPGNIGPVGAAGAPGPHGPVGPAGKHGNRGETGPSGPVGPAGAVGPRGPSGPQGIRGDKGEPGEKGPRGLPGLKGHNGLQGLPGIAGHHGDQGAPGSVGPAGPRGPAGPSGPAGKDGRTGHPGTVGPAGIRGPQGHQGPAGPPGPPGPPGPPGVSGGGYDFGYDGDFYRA
Experiment: dried collagen assay
Bridge positions count the residues as written; N and C are the ends. Square brackets hold non-standard residues; d marks the D form. Primed or numbered codes have the meaning given here. Side chains are listed from the residue outwards. Ends that are not written are not given here. Phe(4-tBu) = CC(C)(C)c1ccc(C[C@H](N)C(=O)O)cc1; Bip = N[C@@H](Cc1ccc(-c2ccccc2)cc1)C(=O)O; Gd^T(3) = GdDTPA attached via thiourea; 1,4 AMB(Gd^T) = not defined here; Gd^T″ = GdDTPA-thiourea
property measured: % bound (%)
The reply should contain only the number, in %.

Would you please look over these solved cases?
1. {Gd^T″}-DWTC[Phe(4-tBu)]GDEYTWHCNYE (disulfide 4-13 (inferred); not fully specified (C-terminus)) [Compound ID 827]    41
2. {Gd^T″}-GK([Gly-Gd^T″])WHCYTK(Gd^T″)FPHHYCK(Gd^T″)YY (disulfide 5-14 (inferred)) [Compound ID 1013]    81
3. {Gd^T″}-GK([Gly-Gd^T″])WHCYTYFPHHYCVYG-{1,4 AMB(Gd^T)} (disulfide 5-14 (inferred); reading uncertain) [Compound ID 1000]    75
4. {Gd^T(3)}-GK([Gly-Gd^T(3)])WHCTTYFPHHYCLY[Bip] (disulfide 5-14) [Compound ID 950]    78

// moving on: another record for % bound
IN: Fill in the blank: the reported % bound of {Gd^T″}-GK([Gly-Gd^T″])WHCTTYFPYHYCLYG (disulfide 5-14 (inferred)) [Compound ID 946] is ____.
OUT: 71

Origin of measurements: patent US20080044360A1
